- TARGET_UNDER_TEST: T1, MutS (Escherichia coli, UniProt P23909 1-853)
- T1 sequence: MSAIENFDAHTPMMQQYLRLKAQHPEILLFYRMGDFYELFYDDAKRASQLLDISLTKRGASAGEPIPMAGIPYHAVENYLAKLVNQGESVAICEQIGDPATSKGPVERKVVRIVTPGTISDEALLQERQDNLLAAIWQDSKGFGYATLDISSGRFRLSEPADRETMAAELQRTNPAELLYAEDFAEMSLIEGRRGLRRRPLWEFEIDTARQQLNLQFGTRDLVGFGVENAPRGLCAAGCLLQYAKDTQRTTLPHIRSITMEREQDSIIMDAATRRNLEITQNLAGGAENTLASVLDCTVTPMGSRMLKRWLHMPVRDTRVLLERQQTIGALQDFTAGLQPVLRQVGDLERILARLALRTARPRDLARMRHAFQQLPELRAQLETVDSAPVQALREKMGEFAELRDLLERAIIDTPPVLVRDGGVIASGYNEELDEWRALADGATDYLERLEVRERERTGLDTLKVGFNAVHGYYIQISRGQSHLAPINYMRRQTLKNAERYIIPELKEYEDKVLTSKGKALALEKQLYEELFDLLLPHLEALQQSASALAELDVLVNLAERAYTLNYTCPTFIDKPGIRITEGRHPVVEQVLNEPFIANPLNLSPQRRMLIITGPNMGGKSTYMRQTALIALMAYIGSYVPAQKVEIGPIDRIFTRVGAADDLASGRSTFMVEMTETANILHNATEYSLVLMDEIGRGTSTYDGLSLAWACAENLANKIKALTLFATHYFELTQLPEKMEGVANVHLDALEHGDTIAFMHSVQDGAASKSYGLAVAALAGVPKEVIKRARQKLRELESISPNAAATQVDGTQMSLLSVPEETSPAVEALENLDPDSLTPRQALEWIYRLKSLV
- PROTOCOL_SUMMARY: competition
RECORDED_ENDPOINT: pKd
Scale: negative log10 of molar concentration, which is what pKd denotes.

// query Respond only with pKd recorded for 30-GC (30-bp homoduplex) (dsDNA) DNA 1: AACTGCCAGGCACCAGTGTCAGCGTCGTAT DNA 2: ATACGACGCTGACACTGGTGCCTGGCAGTT
// result 4.52
